src = the RNAGym collection of RNA variant scans (doi:10.1073/pnas.2313332121)

B1: TPR t1 (parent)
chain: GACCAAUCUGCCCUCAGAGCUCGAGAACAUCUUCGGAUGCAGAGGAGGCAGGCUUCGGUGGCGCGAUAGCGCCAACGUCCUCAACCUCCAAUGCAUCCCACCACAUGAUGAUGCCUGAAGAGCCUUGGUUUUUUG

# Variants of: B1
# protocolText: polymerase ribozyme fitness, log enrichment relative to wild type (log ratio); higher = more active; in vitro selection for triplet polymerase activity
Label scheme, based on polymerase ribozyme fitness (log ratio): low range (below -3), mid range (-3 to below -1), high range (-1 or more)

sequencestring="GACCAAUCUGCCAUCUGAGCUCGAGAACAUCUUCGGAUGCAGAGGAGGCAGGCUUCGGUGGCGCGAUAGCGCCAACGUCCUCAACCUCCAAUGUAUCCCACCACAUGAUGUUGCCUGAAGAGGCUUGGUCUUUUG [C13A A16U C94U A111U C123G U130C]" class="low range"
sequencestring="GACCAAUCUGCCCUCAGAGCUCGAGAACAUCUUCGGAUGCAGAGGAAGCAGGCUUCGAUGGUGCGAUAGCGCCAACGUCCUCAACCUCCAAUGCAUCCCAUCACAUGGUGAUGCCUGAAGAGCCUUGGUUUUUUG [G47A G58A C62U C101U A108G]" class="mid range"
sequencestring="GACCAAUCUGCCCUCAGAGCUCGAGAACAUCUUCGGAUGCAGAGGAGGCAGGCUUCGGUGGCGCGAUAGCGCGAACGUCCUCAACCUCCAAUGCAUUCCACCACAUGAUGAUGCCUGUAGAGCCUUGGUUUUUUG [C73G C97U A118U]" class="mid range"
sequencestring="GACCAAUCUGCCCUCAGAGCUCGAGAACAUCUUCGGAUGCAGAGGAGGCAGGUUUCGGUGGCGCGAUAGCGCCAACGUCCUCAACCUCCAAUGCAUCCCACCACAUGAUGAUGCCUGAAGAGCCUUGGUUUUAUG [C53U U133A]" class="high range"
sequencestring="GACCAAUCAGCUCUCAGAGCUCGAGACCAUCUUCGGAUGCAGAGGAGGCAGGUUUCGGUGGCACGAUAGCGCCAACGUCCUCCACCUCCAAUGCAUCCCACCACAUGAUGAUGCCUGAAGAGCCUUGGUUUUUUG [U9A C12U A27C C53U G63A A83C]" class="low range"
sequencestring="GACCACUCUGCCCUCAGAGCUCGAGAACAUCUUCGGAUGCAGAGGAGGCAGGCUUCGGUGGCGCGAUAGCGCCAACGUCCUCAAACUCCAAUGCAUCCCACCACAUGAUGAUGCCUGAAGAGCCUUGGUUUUUUG [A6C C85A]" class="mid range"
sequencestring="GACCAAACUGCCCUCAGAGCUCGAGAACAUCUUCGCAUGCAGAGGAGGCAGACUGCGGUGGCGCGAUAGCGCCAACGUCCUCAACCUCCAAUGCAUCCCACCACAUGAUGAUGCCUGAAGAGCCUUGGUUUUUUG [U7A G36C G52A U55G]" class="high range"
sequencestring="GACCAAUCUGCCGUCAGAGCUCGAGAACAUCUUCGGUUGCAGAGGAGGCAGGCUUCGGUGGCGCGAUAGCGCCAACGUCCUCAACCUCCAAUGCAUCCCACCACAUGAUGAUGCCUGAAGAGCCUUGGUUUUUUG [C13G A37U]" class="mid range"
sequencestring="GACCAAUCUGCCCUCAGAGCUCGAGAACAUCUUCGGAUGCAGAGGAGGCAGGCUUCGGUGGCGCGAUAGCGCCAACGUCCUCAACCUCCAUUGCAUCCCACCACAUGAUGAUGCCUGAAGAGGCUUGGUUUUUUG [A91U C123G]" class="high range"
sequencestring="GACCAAUGUGCCCUCAGAGCUCGAGAACAUCUUCGGAUGCAGAGGAGGCAGGCUUCGGUGGCGCGAUAGCGACAACGUCCUCAACCUCCAAUGCAUCCCACCACAUGAUGAUGCCUGAAGAGCCUUGGUUUUUUG [C8G C72A]" class="high range"
sequencestring="GACCAAUCUGCCCUCAGAGUUCGAGAACAUCUUCGGAUGCAGAGGAGGCAGGCUUCGGUGGCGCGAUAGCCCCAGCGUCCUUAACCGCCUAUGCAUCCCACCACGUGAUGAUUCCUGAAGAGCCUUGGUUUUUUG [C20U G71C A75G C82U U87G A90U A105G G113U]" class="low range"
sequencestring="GACCAAUCAGCCCUCAGAGCUCGAGAACAUCUUCGGAUGCAGAGGAGGCAGUCUUCGGUGGCGCGAUAGCGCCAACGUCCUCAACCUUCAAUGCAUCCCACCACAUGAUGAUGCCUGAAGAGCAUUGGUUUUUUG [U9A G52U C88U C124A]" class="high range"
sequencestring="GACCAAUCUGCCCUCAGAGCUCGAGAACAUCUUCGGAUGCAGAGGAGGCAGGCUUCGGUGGCGCGAUAGCGCCAACGUCCUCUACCUCCAAUGCAUCCCACCAAAUGAUGAUGCCUGAAGAGCCUUGGUUUUUUG [A83U C104A]" class="mid range"
sequencestring="GACCAAUCUGCCGUCAGAGCUCGAGAACAUCUUCGGAUGCAGAGGAGGCAGGCUUCGGUGGCGCGAUAGCGCCAACGUCCUUAACCUCCAAUGCAUCCCACCACAUGAUGAUGCCUGAAGAGCCUUGGUUUUUUG [C13G C82U]" class="mid range"
sequencestring="GACCAAUCUGCCCUCAGAGGUCGAGAACAUCUUCGGAUGCAGAGGAGGCAGGCUUCGGUGGCGCGAUAGCGCUAACGUCCUCCACCUCCAAUGCAUCCCACCACAUGAUGAUGCCUGAAGAGCCUUGGUUUUUUG [C20G C73U A83C]" class="low range"
sequencestring="GACCAAUCUGCCCUUAGAGCUCGAGAACAUCUUCGGAUGCAGGGGAGGCAGGCUUCGGUGGCGCGAUAGCGCCAACGUCCUCAACCUCCAAUGCAUCCCACCACAUGAUGAUGCCUGAAGAGCAUUGGUUUUUUG [C15U A43G C124A]" class="high range"
sequencestring="GACCAAUCUGCCCUCAGAGCUCGAGAACAUCUUCGGAUGCAGAGGAGGCAGGCUUCGGUGUCGCGAUAGCGCCAACGUCCUCAACCUCGAAUGCAUCCCACCACAUGAUGAUGCCUGAAGAGCCUUGGUUUUUUG [G61U C89G]" class="mid range"
sequencestring="GACCAAUCUGCCCUCAGAGCUCGAGAACAUCUUCGGAUGCAGAGGAGGCAGGCUUCGGUGGAGCGAUAGCGCCAUCGUCCUCAACCUCCAAUGCAUCCCACCACAUGAUGCUGCCUGAAGAGCCUUGGUUUUUUG [C62A A75U A111C]" class="mid range"
sequencestring="GACCAAUCUGCCCUCAGAGCUCGAGAACAUCUUCGGAUGCAGAGGAGGCAUGCUACGGUGGCGCGAUAGCGACAACGUCCUCAACCUCCAAUGCAUCCCACCACAUGAUGAUGCCUGAAGAGCCUUGGAUUUAUG [G51U U55A C72A U129A U133A]" class="low range"
sequencestring="GACCAAUCUGUCCUCAGAGCUCGAGAACAUCUUCGGAUGCAGAGGUGGCAGGCUUCGGUGGCGCGAUAGCGCCAACGUCCUCAACGUCCAAUGCAUCCCACCAUAUGAUGAUGCCUGAAGAGCCUUGGUUUUUUG [C11U A46U C86G C104U]" class="mid range"
sequencestring="GACCAAUCUGCCCUCAGAGCUCGAGAACAUCUUCGAAUGCAGAGGAGGAAGGCUUGGGUGGCGCGAUAGCGCCAACGUCAUCAACCUCCGAUGCAUCCCACCACAUGAUGAUGCCUGAAGAGCCUUGGUUUUUUG [G36A C49A C56G C80A A90G]" class="low range"
sequencestring="GACCAAUCUGCCCUCAGAGCUCGAGAACAUCUUCGGAUGCAGAGGUGGCAGGCUUCGGUGGCGCGAUAGCGCCAACGUCCUCAUCCUCCAAUGCAUCCCACCACAUGAUGAUGCCUGAAGAGCCUUGGUUUUUUG [A46U A84U]" class="mid range"
sequencestring="GACCAAUCUGCCCUCAGAGCUCGAGAACAUCUUCGGAUGCAGAGGAGGCAGGCUUCGGUGGCGCGAUAGCGCCAACGUCCUCAACCUACAAUGCAUCCCACCACAUAAUGAUGCCUGAAGAGCCUUGGUUUUUUG [C88A G107A]" class="low range"
sequencestring="GACCAAUCUGCCCUCAGAGCUCGAGAACAUCUUCGGAUCCAGAGGAGGCAGGCUGCGGUGGCGCGAUAGCGCCAACGUCCUCAACCUCCAAUGCAUCCCACCACAUGAUGAUGCCUGAUGAGCCUUGGUUUUUUG [G39C U55G A119U]" class="high range"
sequencestring="GACCAAUCUGCCCUCAGAGCUCGAGAACAUCUUCGGAUGCACAGGAGGUAGGCUUCGGUGGCGCGAUAGCGCCAACGUCCUCAACCUCCAAUGCAUCCCACCACAUGAUGAUGCCUGAAGAGCCUUGGUUUUUUG [G42C C49U]" class="mid range"
sequencestring="GACCAAUCUGCCCUCAGAGCUCGAGAACAUCUUCGGAUGCAGAGGAGGCAGGCUUCGGUGUCGCGAUAGCGCCAACGUCCUCAACCUUCAAUGCAUCCCACCACAUGAUGAUGCCUGAAGAGCCUUGGUUUUUUG [G61U C88U]" class="high range"
sequencestring="GACCAAUGUGCCCUCAGAGCUCGAGAACAUCUUCGGAUGCAGAGGAGGCAGGCUUCGGUGGCGCGAUAGCGCAAACGUCCUCAACCUCCAAUGCAUCCCACCACAUGAUGAUGCCUGAAGAGCCUUGGUUUUUUG [C8G C73A]" class="high range"
sequencestring="GACCAAUCCGCCCUCAGAGCUCGAGAACAUCUUCGGAGGCAGAGGAGGCAGGCUUCGGUGCCGCGAUAGCGCCAACGUCCUCAACCUCCAAUGCAUCCCAACACAUGAUGAUGCCUGAAGAGCCUUGGUUUUUUG [U9C U38G G61C C101A]" class="low range"
sequencestring="GACCAAUCUGCACUCAGAGCUCGAGAACAUCUUCGGAUGCAGAGGAGGAAGGCUUCGGUGGCGCGAUAGCGCCAACGUCCUAAACCUCCAAUGCAUCCCACCACAUGAUGAUGCCUGAAGAGCCUUGGUUUUUUG [C12A C49A C82A]" class="mid range"
sequencestring="GACCAAUGUGGCCUCAGAGCUCGAGAACAUCUUCGGAUGCAGAGGAGGCAGGCUUAGGUGGGGCGAUAGCGCCAACGUCCUCAAUCUCCAAUGCAUCCCACCACAUGAUGAUGCCUGAAGAGCCUUGGUUUUUUG [C8G C11G C56A C62G C85U]" class="low range"
sequencestring="GACCAAUAUGCCCUCAGAGCUCGAGAACAUCUUCGGAUGCAGAGGAGGCAGGCUUCGGUGGCGCGAUAGCGCCAACGUCCUCAACCUCCAAUGCAUCCCAUCACAUGAUGAUGCCUUAAGAGCCUUGGUUUUUUG [C8A C101U G117U]" class="high range"
sequencestring="GACCAAUCUGCCCUCAGAGCUCGAGAACAUCUUCGGAUGCAGAGGAGGCAGGCUUCGGUGGCGCGAUAGCGCCAACGUCCUCAACCUCCAAUGCAUCCCACCACAUGAUGAUGCCUGAAGAGCCUUGGGUUAUUG [U129G U132A]" class="low range"
sequencestring="GACCAAUCUGCCCUCAGAGCUCGAGAACAUCUUCGGAUGCAGAGGAGGCAGGCUUCGGUGUCGCGAUAGCGCCAACGUCCUCAACCUCCAAAGCAUCCCACCACAUGAUGAUGCCUGAAGAGCCUUGGUUUUUUG [G61U U92A]" class="mid range"
sequencestring="GACCAAUCUGUUCUCAGAGCUCGAGAACAUCUUCGGAUGCAGAGGAGGCAGGCUUCGGUGGCGCGAUAGCGCCAACGUCCUCAACCUCCAAUGCAUCCCACCACAUGAUGCUGCCUGAAGAACCUUGGUUUUUUG [C11U C12U A111C G122A]" class="high range"
sequencestring="GACCAGUCUGCUCUCAGAGCUCGAGAACAUCUUCGUAUGCAGAGGAGGCAGUCUUCGGUGGCGCGAUAGUGCCAACGUCCUCAACCUCCAAUGCAGCCCACCACAUGAUGAUGCCUGAAGCGCCUUGGUUUUUUG [A6G C12U G36U G52U C70U U96G A121C]" class="mid range"
sequencestring="GACCAAUCUGCCCACAGACCUCGAGAACAUCUUCGGAUGCAGAGGAGGCAGGCUUCGGUGGCGCGAUAGCGCCAACGUCCUCCACCUCAAAUGCAUCCCACCACAUGAUGCUGGCUGAAGAGCCUUGGUUUUUUG [U14A G19C A83C C89A A111C C114G]" class="low range"
